Source listed as patent US20200308165A1.

target: Ras protein (Homo sapiens, UniProt P01116)
Sequence (P01116 1-188 isoform P01116-2): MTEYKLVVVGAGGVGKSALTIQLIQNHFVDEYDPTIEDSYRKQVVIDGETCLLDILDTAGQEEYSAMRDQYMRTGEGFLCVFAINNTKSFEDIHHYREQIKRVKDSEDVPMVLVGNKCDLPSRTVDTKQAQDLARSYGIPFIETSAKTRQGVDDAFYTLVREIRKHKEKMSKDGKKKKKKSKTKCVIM
assay_text: GDPx_Icagen_IC50: SOS1-mediated guanine nucleotide exchange rate of Ras (mant-GDP)
Type: biochemical
cond: SOS1-initiated exchange
From the text: In some embodiments, the IC50 assay measures the reduction effect of a given compound on the guanine nucleotide-echange rate of Ras protein in the presence of guanine nucleotide exchange protein SOS1, which is a Ras activator. […]
measurement_label: IC50 (nM)

Example entries begin here.
Problem: Entry O=c1cc(COc2ccccc2)[nH]n1-c1nc2ccccc2[nH]1 has what IC50?
Result: 800

Problem: Entry O=c1cc(CSc2nc3cccnc3s2)[nH]n1-c1nc2ccccc2[nH]1 has what IC50?
Result: 400

Problem: Entry O=c1cc(CSc2nc3cc(Cl)ccc3s2)[nH]n1-c1nc2ccccc2[nH]1 has what IC50?
Result: 300

Problem: Entry Cc1ccnc(-n2[nH]c(CSc3ccccc3)cc2=O)c1 has what IC50?
Result: 9300

Problem: Entry Cc1ccc(-n2[nH]c(CSc3ccccc3)cc2=O)nc1 has what IC50?
Result: 1600

Problem: Entry O=c1cc(CSCc2ccc(F)cc2)[nH]n1-c1nc2ccccc2[nH]1 has what IC50?
Result: 300

Problem: Entry NC(=O)c1cccc(SCc2cc(=O)n(-c3nc4ccccc4[nH]3)[nH]2)c1 has what IC50?
Result: 500

Problem: Entry Cc1cc(C)nc(CSCc2cc(=O)n(-c3nc4ccccc4[nH]3)[nH]2)n1 has what IC50?
Result: 22000

Problem: Entry CCc1csc(SCc2cc(=O)n(-c3nc4ccccc4[nH]3)[nH]2)n1 has what IC50?
Result: 50

Problem: Entry O=c1cc(CSc2ncccn2)[nH]n1-c1nc2ccccc2[nH]1 has what IC50?
Result: 3000

[I] O=c1cc(CSc2ccccn2)[nH]n1-c1nc2ccccc2[nH]1
[II] O=c1cc(CSc2nnc(-c3ccccc3)o2)[nH]n1-c1nc2ccccc2[nH]1
Problem: For I and II , which recorded IC50 is lower? Response format: the label of the selected entry.
Result: I
(I: 170 nM, II: 2000 nM)

[A] Cc1cc(C)nc(SCc2cc(=O)n(-c3ccccn3)[nH]2)n1
[B] O=c1cc(CSc2nc(Cc3ccccc3)cs2)[nH]n1-c1nc2ccccc2[nH]1
Problem: Pick the one with the larger IC50: A vs B Response format: the label of the selected entry.
Result: A
